molecular target: mu-opioid receptor (Homo sapiens, UniProt P35372)
Sequence (P35372 whole entry, species assumed): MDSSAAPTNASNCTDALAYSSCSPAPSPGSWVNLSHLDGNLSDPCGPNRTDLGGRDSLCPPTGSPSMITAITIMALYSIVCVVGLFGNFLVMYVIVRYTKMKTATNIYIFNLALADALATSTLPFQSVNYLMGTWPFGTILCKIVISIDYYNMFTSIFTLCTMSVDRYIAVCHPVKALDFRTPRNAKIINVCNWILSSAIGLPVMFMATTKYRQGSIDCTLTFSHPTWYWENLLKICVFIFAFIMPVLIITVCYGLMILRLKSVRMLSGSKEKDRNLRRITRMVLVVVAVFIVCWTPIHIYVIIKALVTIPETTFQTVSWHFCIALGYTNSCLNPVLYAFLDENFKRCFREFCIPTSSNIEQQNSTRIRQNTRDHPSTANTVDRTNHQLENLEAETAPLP
pKi: −log10 of the molar value.
measurement.name: pKi

Inquiry: Identify measured pKi obtained with mu-opioid receptor (Homo sapiens, UniProt P35372) for NC(=O)c1ccc(Oc2ccc(CNC3CCOCC3)c3ccccc23)nc1 [Example 16] .
Reply text: > 7.00
